Hey, just so you know, these numbers are from patent US8193203B2.

# target: human CXCR4 receptor (Homo sapiens, UniProt P61073)
# Construct: expressed in transfected cells
# Sequence (P61073 whole entry): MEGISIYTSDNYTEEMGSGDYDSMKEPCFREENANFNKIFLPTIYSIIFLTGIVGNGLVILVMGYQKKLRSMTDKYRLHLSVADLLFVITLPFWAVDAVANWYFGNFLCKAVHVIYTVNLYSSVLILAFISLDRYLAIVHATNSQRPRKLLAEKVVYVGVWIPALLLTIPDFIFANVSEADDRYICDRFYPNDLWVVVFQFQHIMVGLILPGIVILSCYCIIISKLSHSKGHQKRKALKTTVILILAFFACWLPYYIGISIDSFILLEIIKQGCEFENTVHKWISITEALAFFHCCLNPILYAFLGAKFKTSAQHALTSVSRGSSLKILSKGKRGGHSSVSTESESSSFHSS
# procedure_details: Measurement of intracellular Ca+2 responses (FLIPR), antagonism of the SDF-1α response
# Format: cell-based
# particulars: HEK-Gqi5 cells stably expressing human CXCR4; Fluo-4 FLIPR; antagonism of SDF-1α 1.9 nM (EC65); values in nM
# Description: Measurement of Intracellular Ca^+2 Responses for CXCR4 Compounds HEK-Gqi5 cells stably expressing the human CXCR4 receptor were utilized for these studies. […] Extracellular dye was removed by washing the cell plates four times prior to placing the plates in the FLIPR (Fluorometric Imaging Plate Reader, Molecular Devices). […] Fluorescence measurements were also taken after this second drug addition and were used to determine the ability of the test compounds to antagonize the SDF-1α response. […]
property_label: IC50 (nM)

Below, 5 compounds whose answers are already recorded.
Q: Read off the recorded IC50 for COc1cccc(N(C)C)c1CN1CCC(Nc2nc(NCC(C)(C)CN(C)C)nc3ccccc23)CC1
Ans: 240

Q: Give the measured IC50 for COc1cc2nc(NCCCN(C)C)nc(NC3CCN(Cc4c(OCCN(C)C)cccc4N(C)C)CC3)c2cc1OC
Ans: 19

Q: Tell me measured IC50 for COc1cc2nc(N3CCCCCC3)nc(NC3CCN(Cc4c(OC)cccc4N(C)C)CC3)c2cc1OC please.
Ans: 730

Q: For the compound COc1cc2nc(NCc3cnco3)nc(NC3CCN(Cc4c(OCCN(C)C)cccc4N(C)C)CC3)c2cc1OC , give its reported IC50.
Ans: 58

Q: # return recorded IC50 for entry CCN(CC)CCCCNc1nc(NC2CCN(Cc3c(OC)cccc3N(C)C)CC2)c2ccccc2n1
Ans: 200

[1] COc1cc2nc(NCc3nccs3)nc(NC3CCN(Cc4c(OCCN(C)C)cccc4N(C)C)CC3)c2cc1OC
[2] COc1cccc(N(C)C)c1CN1CCC(Nc2nc(NCCN)nc3ccccc23)CC1
Q: // compare: 1 vs 2 , metric IC50, want the smaller // caller expects the label of the chosen entry
Ans: 1
